Molecular target: human tau oligomers (human, UniProt P10636-6 2-383, limits assumed)
Sequence (P10636 other isoform, or with tags, fused parts or gaps limits assumed): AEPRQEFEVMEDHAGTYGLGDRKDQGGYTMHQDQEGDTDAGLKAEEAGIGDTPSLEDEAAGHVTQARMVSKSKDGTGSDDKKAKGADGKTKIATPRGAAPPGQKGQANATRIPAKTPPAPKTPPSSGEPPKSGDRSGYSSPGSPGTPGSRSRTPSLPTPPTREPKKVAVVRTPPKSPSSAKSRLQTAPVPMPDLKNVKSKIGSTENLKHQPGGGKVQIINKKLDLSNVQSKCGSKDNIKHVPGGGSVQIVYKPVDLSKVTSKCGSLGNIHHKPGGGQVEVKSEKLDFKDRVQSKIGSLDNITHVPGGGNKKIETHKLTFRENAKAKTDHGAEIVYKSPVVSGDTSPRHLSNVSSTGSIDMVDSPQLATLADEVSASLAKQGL
Assay: cell-based or functional assay
recorded_endpoint: MTT viability of primary neurons with tau oligomers, antibody at 0.33 molar equivs

Input mouse 12C4 antibody (antibody, mouse IgG2a, V domains shown, also called m12C4) VH: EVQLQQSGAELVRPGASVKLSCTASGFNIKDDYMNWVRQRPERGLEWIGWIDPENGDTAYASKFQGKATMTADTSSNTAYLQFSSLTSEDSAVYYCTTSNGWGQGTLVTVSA VL: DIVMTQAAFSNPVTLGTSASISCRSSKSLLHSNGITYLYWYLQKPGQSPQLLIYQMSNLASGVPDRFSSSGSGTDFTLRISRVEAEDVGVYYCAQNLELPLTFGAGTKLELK . Output MTT viability of primary neurons with tau oligomers, antibody at 0.33 molar equivs: 53.2 % of control

Reference source for all entries: patent US20220275067A1
